Data credit: PubChem BioAssay AID330

- System: P388 leukemia ip, CD2F1 mice, survival T/C
- Assay name: NCI In Vivo Anticancer Drug Screen. Data for tumor model P388 Leukemia (intraperitoneal) in CD2F1 (CDF1) mice
- Study conditions: endpoint: median survival time; dose: 100.0 mg/kg/injection; schedule: Q01DX009 (ip); vehicle: saline with Tween-80; higher = longer survival
- Procedure: The antitumor activity of compounds was measured in mice bearing transplantable tumors. Survival or tumor size were measured and the results are expressed as the measurement made in the treated group (T) divided by the measurement made in the vehicle treated control group (C). The tumor model used in this assay is P388 Leukemia (intraperitoneal) in CD2F1 (CDF1) mice
Toxic doses and inconclusive results are not listed.
Endpoint label: T/C

# annotated cases, reported T/C shown
Cc1noc(C)c1Br | 102 % of control
CC(=O)Nc1ccc(C)cc1C1SCCS1 | 97 % of control
CCOC(=O)Nc1nc2cc(C(=O)OC)n(C)c2s1 | 86 % of control
CCCCNCCC(O)c1cc2ccc(C(F)(F)F)cc2c2cc(C(F)(F)F)ccc12 (stereo not drawn) | 91 % of control
COc1cc[c]([Sb]2([c]3ccc(OC)cc3)([c]3ccc(OC)cc3)[NH]c3cc(C(c4ccccc4)(c4ccccc4)c4ccccc4)cc(C(C)(C)C)c3[O]2)cc1 | 99 % of control
O=C1c2ccccc2CC2CCCCC12 (stereo not drawn) | 102 % of control

Please look up its T/C: CCCCCCC(=O)CC(SCC)c1c(Cl)cccc1Cl (stereo not drawn)
98 % of control

Lookup C/C=C(\C)C(=O)N/N=C\c1ccc(O)cc1O
96 % of control

Lookup CN(C)c1ccc(-c2nc3ccccc3s2)c(Cl)c1
103 % of control

Lookup CSC(SC)(SC)SC
109 % of control

Lookup O=C(O)CCCC(=O)c1ccc2ccccc2c1
98 % of control

Lookup O=C(O)/C=C/C(=O)OCCBr
100 % of control

Lookup N#CC(C#N)=CNc1ccccc1
106 % of control
